Measured cAMP Rel EC50 (in the presence of 1% HSA) of individual entries
molecular target: human glucagon receptor (human) (UniProt P47871); test: cell-based or functional assay
Sequence (P47871 26-477): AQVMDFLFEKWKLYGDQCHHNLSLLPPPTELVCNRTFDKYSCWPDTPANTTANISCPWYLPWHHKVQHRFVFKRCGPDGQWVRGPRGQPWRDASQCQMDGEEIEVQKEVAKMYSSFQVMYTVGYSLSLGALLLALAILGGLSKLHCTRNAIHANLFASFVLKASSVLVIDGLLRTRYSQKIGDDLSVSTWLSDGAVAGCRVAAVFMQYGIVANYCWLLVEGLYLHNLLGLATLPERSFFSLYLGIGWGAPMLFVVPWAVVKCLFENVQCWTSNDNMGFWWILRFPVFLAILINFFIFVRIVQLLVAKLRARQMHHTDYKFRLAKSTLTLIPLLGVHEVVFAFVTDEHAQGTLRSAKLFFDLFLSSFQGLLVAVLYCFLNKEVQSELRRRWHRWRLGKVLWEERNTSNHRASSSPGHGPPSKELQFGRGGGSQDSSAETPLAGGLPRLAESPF
measured-endpoint: cAMP Rel EC50 (in the presence of 1% HSA) (nM)

{"binder": "YXQGTXTSDXXIXLDXKAQXXFIEXLTEGGPSSGEPPPEGTEE (acylated Lys (γGlu)2-C18 diacid; non-natural residues; C-terminal amide; synthetic construct; SITE 2: note = 2-Aminoisobutyric Acid; SITE 6: note = alpha-methyl-2-fluoro-L-phenylalanine; SITE 10: note = 3-(4-Pyridyl)-L-alanine; SITE 11: note = alpha-methyl-L-serine; SITE 13: note = alpha-methyl-leucine; SITE 16: note = L-ornithine; SITE 17: note = Lysine is chemically mo) [Example 597]", "experimental-value": 329}
{"binder": "YXQGTFTSDFSKXLDKKAQXAFIEYLLEXGPSSGEPPPSEG (Aib, αMeL; acylated Lys; C-terminal amide; synthetic construct; SITE 2: note = 2-Aminoisobutyric Acid; SITE 13: note = alpha-methyl-leucine; SITE 17: note = Lysine is chemically modified through conjugation of the epsilon-amino group of the Lysine side chain with (2-[2-(2-Amino-ethoxy)-ethoxy]-acetyl)-(gamma-Glu)-CO-(CH2) 16-CO2H; SITE 20: n) [Example 46]", "experimental-value": 393}
{"binder": "YXQGTXTSDXXIXLDXKAQXEFIEXLVEGGPSSGEPPPGGE (not fully specified; Aib, αMeF(2F), 4Pal, Me4Pal, Orn; lipidated Lys; C-terminal amide; synthetic construct; SITE 2: note = 2-Aminoisobutyric Acid; SITE 6: note = alpha-methyl-2-fluoro-L-phenylalanine …; SITE 10: note = 3-(4-Pyridyl)-L-alanine; SITE 11: note = alpha-methyl-L-serine; SITE 13: note = alpha-methyl-leucine; SITE 16: note = L-ornithine; SITE 17: note = Lysine is chemically mo) [Example 1155]", "experimental-value": 288}
{"binder": "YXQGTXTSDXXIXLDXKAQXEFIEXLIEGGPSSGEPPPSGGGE (non-natural residues; Lys acylated C18 diacid; C-terminal amide; synthetic construct; SITE 2: note = 2-Aminoisobutyric Acid; SITE 6: note = alpha-methyl-2-fluoro-L-phenylalanine; SITE 10: note = 3-(4-Pyridyl)-L-alanine; SITE 11: note = alpha-methyl-L-serine; SITE 13: note = alpha-methyl-leucine; SITE 16: note = L-ornithine; SITE 17: note = Lysine is chemically mo) [Example 1181]", "experimental-value": 203}
{"binder": "YXQGTFTSDFSKXLDKKAQXAFIEYLLAGGPSSGEPPPSEE (synthetic construct; SITE 2: note = 2-Aminoisobutyric Acid; SITE 13: note = alpha-methyl-leucine; SITE 17: note = Lysine is chemically modified through conjugation of the epsilon-amino group of the Lysine side chain with (2-[2-(2-Amino-ethoxy)-ethoxy]-acetyl)-(gamma-Glu)-CO-(CH2) 18-CO2H; SITE 20: n) [Example 4]", "experimental-value": 1580}
{"binder": "YXQGTXTSDXSIXLDKKAQXAFIEYLEEGGPSSGEPPPSGTGE (non-natural residues, C18 diacid acylation, C-terminal amide; synthetic construct; SITE 2: note = 2-Aminoisobutyric Acid; SITE 6: note = alpha-methyl-2-fluoro-L-phenylalanine; SITE 10: note = 3-(4-Pyridyl)-L-alanine; SITE 13: note = alpha-methyl-leucine; SITE 17: note = Lysine is chemically modified through conjugation of the epsilon-amino group of the Lysine) [Example 624]", "experimental-value": 808}
{"binder": "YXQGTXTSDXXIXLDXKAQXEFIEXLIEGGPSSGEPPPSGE (non-natural residues; lipidated Lys; C-terminal amide; synthetic construct; SITE 2: note = 2-Aminoisobutyric Acid; SITE 6: note = alpha-methyl-L-phenylalanine; SITE 10: note = 3-(4-Pyridyl)-L-alanine; SITE 11: note = alpha-methyl-L-serine; SITE 13: note = alpha-methyl-leucine; SITE 16: note = L-ornithine; SITE 17: note = Lysine is chemically modified th) [Example 1165]", "experimental-value": 358}
